Cited source for all entries: the supplement of paper PMC11780869

- Tested on: Bacillus subtilis
- assay method text: cleaved RNA product abundance (RNA/gDNA barcode ratio) relative to median wild-type variant (ratio to wild type); higher = more accumulation of the downstream cleavage product
- condition description: experiment (reporter, strain, medium): exp 4a: truncated aprE reporter, strain BJT201 with 2% xylose (RNase J1 expressed); cleavage site: cggR-gapA (positions -7 to +36 mutated)
cleaved RNA product abundance by entry:
Provide a numeric answer; units are not to be included.

{"ordered residues": "ACAGACGAAGGAGCCGCAAAGAAGTTATTAAAGGATGAATAATCCCTCAATATAGATATCTCTCACTTATTTAAA", "cleaved RNA product abundance": 0.0996}

Provide the documented cleaved RNA product abundance with Bacillus subtilis as the system for ACAGACGAAGGAGCCGCAAAGAATTTATTAAGGTATGAATAATCCCTCAATATAAATATCTCTCACTTATTTAAA 0.178

Queued: ACAGACGAAGGAGCCGCAAAGATGTTATTAAGCGATGAATAATCCCTCAATATAAATATCTCTCACTTATTTAAA 0.11

Same read-out for ACAGACGAAGGAGCCGCAAAGAAGTTATTAAGGGATGAATACTCCTTCAATATAAATATCTCTCACTTATTTAAA ? 0.253

Lookup ACAGACGAAGGAGCCGCAAAAAAGTTATTATGGGATGAATAATCCCTCAATATAAATATCTCTCACTTATTTAAA 0.334

Can you check ACAGACGAAGGAGCCGCAAAGAACTTATTAAGGGATGAATAATCTCTCAATATAAATATCTCTCACTTATTTAAA next? 0.418

Same again, this time with ACAGACGAAGGAGCCGCAAAGAAGTTATTAAGGGATGAATAATCCCCTCAATATAAATATCTCTCACTTATTTAA 0.364

* * *

Below, each entry is listed alongside its reported cleaved RNA product abundance.
- System: Bacillus subtilis
- assay method text: cleaved RNA product abundance (RNA/gDNA barcode ratio) relative to median wild-type variant (ratio to wild type); higher = more accumulation of the downstream cleavage product
- condition description: experiment (reporter, strain, medium): exp 2b: truncated aprE reporter, strain BJT200; cleavage site: cggR-gapA (positions -7 to +36 mutated)
The answer should be a number; do not append a unit.

Past entries and their recorded results:
{"ordered residues": "ACAGACGAAGGAGCCGCAAAGAAGTTATTAAGGGATTAATAAGCCCTCAATATAAATATCTCTCACTTATTTAAA", "cleaved RNA product abundance": 0.453}
{"ordered residues": "ACAGACGAAGGAGCCGCACAGAAGTTATTAAGTGATGAATAATCCCTCAATATAAATATCTCTCACTTATTTAAA", "cleaved RNA product abundance": 0.106}
{"ordered residues": "ACAGACGAAGGAGCCGCAAAGAAGTTATTAAAGGATGAATAATCCCCCAATATAAATATCTCTCACTTATTTAAA", "cleaved RNA product abundance": 0.152}
{"ordered residues": "ACAGACGAAGGAGCCGCAAAGAATTTATTAAGGCATGAATAATCCCTCAATATAAATATCTCTCACTTATTTAAA", "cleaved RNA product abundance": 0.1}

What measured cleaved RNA product abundance goes with ACAGACGAAGGAGCCGCAAAAAAGGTATTAAGGGATGAATAATCCCTCAATATAAATATCTCTCACTTATTTAAA ? 1.78

What would you report for ACAGACGAAGGAGCCGCAAAGAAATTAATAAGGGATGAATAATCCCTCAATATAAATATCTCTCACTTATTTAAA ? 0.223

Follow-up item: ACAGACGAAGGAGCCGCAAAGAAGTTATTAAGGGATGAATAAACACTCAATATAAATATCTCTCACTTATTTAAA 0.0698
